Biological target: KRAS-G12C/SOS1 interaction (Homo sapiens (Human), UniProt Q07889)
Sequence (Q07889 whole entry, stated change not applied): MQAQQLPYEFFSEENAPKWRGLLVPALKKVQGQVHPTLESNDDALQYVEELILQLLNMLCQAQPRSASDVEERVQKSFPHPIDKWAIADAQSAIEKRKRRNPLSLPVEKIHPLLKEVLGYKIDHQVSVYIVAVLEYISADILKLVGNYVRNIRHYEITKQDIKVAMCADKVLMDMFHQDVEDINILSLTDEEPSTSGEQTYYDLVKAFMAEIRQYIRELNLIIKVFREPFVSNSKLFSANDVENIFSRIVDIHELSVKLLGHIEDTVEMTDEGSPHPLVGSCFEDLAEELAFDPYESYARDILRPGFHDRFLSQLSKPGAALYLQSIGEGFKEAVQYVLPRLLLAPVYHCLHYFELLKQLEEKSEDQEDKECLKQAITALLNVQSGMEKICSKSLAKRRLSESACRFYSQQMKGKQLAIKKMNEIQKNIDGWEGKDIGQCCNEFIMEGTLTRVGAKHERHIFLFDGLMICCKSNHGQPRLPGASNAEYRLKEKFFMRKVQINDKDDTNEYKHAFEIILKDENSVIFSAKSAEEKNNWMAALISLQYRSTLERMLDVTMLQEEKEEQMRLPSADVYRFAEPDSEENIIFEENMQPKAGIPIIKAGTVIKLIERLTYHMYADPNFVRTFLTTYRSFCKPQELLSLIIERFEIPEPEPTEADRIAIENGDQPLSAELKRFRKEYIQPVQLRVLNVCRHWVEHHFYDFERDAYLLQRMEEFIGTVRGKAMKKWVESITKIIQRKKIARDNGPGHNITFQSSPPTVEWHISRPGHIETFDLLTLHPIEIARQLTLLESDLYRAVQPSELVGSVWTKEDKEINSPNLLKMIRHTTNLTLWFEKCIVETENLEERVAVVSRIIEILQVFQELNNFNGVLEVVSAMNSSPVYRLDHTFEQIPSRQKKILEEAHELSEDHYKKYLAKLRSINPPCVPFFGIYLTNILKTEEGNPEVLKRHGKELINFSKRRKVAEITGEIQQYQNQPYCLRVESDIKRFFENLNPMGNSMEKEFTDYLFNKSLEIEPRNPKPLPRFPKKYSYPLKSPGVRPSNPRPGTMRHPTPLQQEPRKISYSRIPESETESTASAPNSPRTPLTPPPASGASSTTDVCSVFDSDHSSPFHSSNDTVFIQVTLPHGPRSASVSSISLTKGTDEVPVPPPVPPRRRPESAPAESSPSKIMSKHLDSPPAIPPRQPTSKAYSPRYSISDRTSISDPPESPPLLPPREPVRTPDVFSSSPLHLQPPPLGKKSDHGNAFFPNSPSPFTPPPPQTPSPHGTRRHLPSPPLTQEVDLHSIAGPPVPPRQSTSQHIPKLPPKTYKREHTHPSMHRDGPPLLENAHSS
Assay: Protein-Protein Interaction (PPI) assay, SOS1-KRAS binding assay kit (HTRF)
Settings: read-out: PPI Assay IC50
pIC50: −log10 of the molar value.

| line-notation | pIC50 |
| --- | --- |
| CC(=O)NC1(c2cc3c(N[C@H](C)c4cccc(C(F)F)c4F)ncnc3n3cnnc23)CCN(C(C)=O)CC1 | > 7.00 |
| COC1(c2cc3c(N[C@H](C)c4cccc(C(F)F)c4F)ncnc3n3cnnc23)CCS(=O)(=O)CC1 | > 7.00 |
| Cc1nc(N[C@H](C)c2cccc(C(F)(F)F)c2F)c2cc(C(=O)N3CC4(COC4)C3)c3ncnn3c2n1 | > 7.00 |
| Cc1nc(N[C@H](C)c2cccc(C(F)F)c2F)c2cc(C(=O)N3CCN(C4COC4)CC3)c3ncnn3c2n1 | > 7.00 |
